Source: the supplement of paper PMC6555819

Kindly state PBM binding z-score for each of the entries shown.
System: RXRa homodimer (NR concentration 180 nM)
assay.details: PBM binding z-score (relative to random genomic background probes); higher = stronger binding; sequences stand for … in GC…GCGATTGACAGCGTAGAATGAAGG

Fill in: RXRa homodimer (NR concentration 180 nM) PBM binding z-score for "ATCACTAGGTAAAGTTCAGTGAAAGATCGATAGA" = 1.55

Fill in: RXRa homodimer (NR concentration 180 nM) PBM binding z-score for "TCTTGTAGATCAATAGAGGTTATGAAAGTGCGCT" = 1.55

Fill in: RXRa homodimer (NR concentration 180 nM) PBM binding z-score for "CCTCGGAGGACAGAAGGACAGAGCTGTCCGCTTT" = -0.555

Fill in: RXRa homodimer (NR concentration 180 nM) PBM binding z-score for "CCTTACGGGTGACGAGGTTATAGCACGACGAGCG" = 1.95

Fill in: RXRa homodimer (NR concentration 180 nM) PBM binding z-score for "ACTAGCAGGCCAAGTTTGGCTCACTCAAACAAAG" = -0.415

Fill in: RXRa homodimer (NR concentration 180 nM) PBM binding z-score for "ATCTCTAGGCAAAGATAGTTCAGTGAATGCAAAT" = -0.0781

Fill in: RXRa homodimer (NR concentration 180 nM) PBM binding z-score for "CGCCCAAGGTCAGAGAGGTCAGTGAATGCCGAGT" = 5.42

Fill in: RXRa homodimer (NR concentration 180 nM) PBM binding z-score for "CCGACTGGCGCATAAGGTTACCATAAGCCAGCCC" = 0.736

Fill in: RXRa homodimer (NR concentration 180 nM) PBM binding z-score for "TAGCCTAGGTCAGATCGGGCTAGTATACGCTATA" = 1.34

Fill in: RXRa homodimer (NR concentration 180 nM) PBM binding z-score for "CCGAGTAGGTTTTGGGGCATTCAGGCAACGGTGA" = -0.246

Fill in: RXRa homodimer (NR concentration 180 nM) PBM binding z-score for "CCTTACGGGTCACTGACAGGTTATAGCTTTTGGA" = 4.7

Fill in: RXRa homodimer (NR concentration 180 nM) PBM binding z-score for "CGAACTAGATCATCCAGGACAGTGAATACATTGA" = -0.151

Fill in: RXRa homodimer (NR concentration 180 nM) PBM binding z-score for "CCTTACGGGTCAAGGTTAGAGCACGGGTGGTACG" = 4.97

Fill in: RXRa homodimer (NR concentration 180 nM) PBM binding z-score for "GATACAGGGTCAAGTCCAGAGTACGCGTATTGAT" = 6.06

Fill in: RXRa homodimer (NR concentration 180 nM) PBM binding z-score for "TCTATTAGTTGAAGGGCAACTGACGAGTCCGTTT" = 0.829

Fill in: RXRa homodimer (NR concentration 180 nM) PBM binding z-score for "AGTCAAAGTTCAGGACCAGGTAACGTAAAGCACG" = 2.91

###

System: VDR homodimer (NR concentration 270 nM)
assay.details: PBM binding z-score (relative to random genomic background probes); higher = stronger binding; sequences stand for … in GC…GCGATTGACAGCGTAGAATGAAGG
# if value of PBM binding z-score reaches 0.6, tag satisfied; if it stays below, tag not satisfied

In: Identify whether the reported PBM binding z-score of the following sequence is 0.6 or greater: "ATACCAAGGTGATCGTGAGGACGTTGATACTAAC"
Out: satisfied

In: Identify whether the reported PBM binding z-score of the following sequence is 0.6 or greater: "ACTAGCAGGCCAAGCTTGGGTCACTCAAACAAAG"
Out: not satisfied

In: Identify whether the reported PBM binding z-score of the following sequence is 0.6 or greater: "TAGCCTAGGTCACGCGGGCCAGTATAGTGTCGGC"
Out: not satisfied

In: Identify whether the reported PBM binding z-score of the following sequence is 0.6 or greater: "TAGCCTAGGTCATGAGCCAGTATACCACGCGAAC"
Out: not satisfied

In: Identify whether the reported PBM binding z-score of the following sequence is 0.6 or greater: "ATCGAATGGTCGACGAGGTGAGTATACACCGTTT"
Out: not satisfied

In: Identify whether the reported PBM binding z-score of the following sequence is 0.6 or greater: "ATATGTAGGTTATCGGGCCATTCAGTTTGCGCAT"
Out: satisfied

In: Identify whether the reported PBM binding z-score of the following sequence is 0.6 or greater: "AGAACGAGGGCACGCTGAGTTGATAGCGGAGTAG"
Out: satisfied

In: Identify whether the reported PBM binding z-score of the following sequence is 0.6 or greater: "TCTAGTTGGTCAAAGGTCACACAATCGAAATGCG"
Out: satisfied

###

System: LXRa homodimer (NR concentration 270 nM)
assay.details: PBM binding z-score (relative to random genomic background probes); higher = stronger binding; sequences stand for … in GC…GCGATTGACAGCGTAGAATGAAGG
Kindly state PBM binding z-score for each of the entries shown.
Number, no unit, nothing else.

PBM binding z-score recorded for this sequence, "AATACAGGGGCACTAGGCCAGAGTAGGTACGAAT" , is -0.197

PBM binding z-score recorded for this sequence, "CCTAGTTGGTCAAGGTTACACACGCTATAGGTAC" , is 0.67

PBM binding z-score recorded for this sequence, "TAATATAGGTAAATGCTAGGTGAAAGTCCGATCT" , is 0.391

PBM binding z-score recorded for this sequence, "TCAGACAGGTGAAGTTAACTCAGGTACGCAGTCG" , is 0.0333

PBM binding z-score recorded for this sequence, "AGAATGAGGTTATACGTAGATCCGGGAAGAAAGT" , is -0.0656

PBM binding z-score recorded for this sequence, "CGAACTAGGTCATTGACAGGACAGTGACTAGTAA" , is 0.385

PBM binding z-score recorded for this sequence, "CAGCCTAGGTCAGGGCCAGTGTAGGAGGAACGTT" , is -0.646

PBM binding z-score recorded for this sequence, "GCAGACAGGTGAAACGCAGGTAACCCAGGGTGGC" , is -0.737

PBM binding z-score recorded for this sequence, "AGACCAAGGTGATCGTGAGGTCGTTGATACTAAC" , is 0.368

PBM binding z-score recorded for this sequence, "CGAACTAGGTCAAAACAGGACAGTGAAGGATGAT" , is 0.154

PBM binding z-score recorded for this sequence, "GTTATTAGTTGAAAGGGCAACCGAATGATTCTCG" , is 1.19

PBM binding z-score recorded for this sequence, "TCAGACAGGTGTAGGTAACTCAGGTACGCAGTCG" , is 0.205

###

Kindly state PBM binding z-score for each of the entries shown.
System: LXRa homodimer (NR concentration 270 nM)
assay.details: PBM binding z-score (relative to random genomic background probes); higher = stronger binding; sequences stand for … in GC…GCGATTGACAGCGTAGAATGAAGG
Number, no unit, nothing else.

PBM binding z-score recorded for this sequence, "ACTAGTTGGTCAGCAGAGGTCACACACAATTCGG" , is 4.06

PBM binding z-score recorded for this sequence, "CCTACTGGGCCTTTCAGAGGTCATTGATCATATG" , is 8.02

PBM binding z-score recorded for this sequence, "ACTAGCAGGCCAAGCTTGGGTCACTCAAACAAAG" , is -0.692

PBM binding z-score recorded for this sequence, "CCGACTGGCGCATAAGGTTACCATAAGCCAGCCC" , is -0.184

###

System: PPARg homodimer (NR concentration 180 nM)
assay.details: PBM binding z-score (relative to random genomic background probes); higher = stronger binding; sequences stand for … in GC…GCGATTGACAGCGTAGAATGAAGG
Kindly state PBM binding z-score for each of the entries shown.
Number, no unit, nothing else.

PBM binding z-score recorded for this sequence, "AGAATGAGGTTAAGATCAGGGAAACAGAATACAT" , is 0.847

PBM binding z-score recorded for this sequence, "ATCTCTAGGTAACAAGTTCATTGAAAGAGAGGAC" , is 1.57

PBM binding z-score recorded for this sequence, "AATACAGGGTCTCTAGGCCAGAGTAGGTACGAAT" , is 0.115

PBM binding z-score recorded for this sequence, "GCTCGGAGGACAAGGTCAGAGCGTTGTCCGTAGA" , is 0.169

PBM binding z-score recorded for this sequence, "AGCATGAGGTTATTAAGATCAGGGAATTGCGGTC" , is 0.577

PBM binding z-score recorded for this sequence, "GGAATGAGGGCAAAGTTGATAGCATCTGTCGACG" , is 0.811

PBM binding z-score recorded for this sequence, "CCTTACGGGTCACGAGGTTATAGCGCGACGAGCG" , is 3.21

PBM binding z-score recorded for this sequence, "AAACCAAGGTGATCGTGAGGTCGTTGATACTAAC" , is 0.649

PBM binding z-score recorded for this sequence, "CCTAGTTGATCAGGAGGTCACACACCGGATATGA" , is 4.38

PBM binding z-score recorded for this sequence, "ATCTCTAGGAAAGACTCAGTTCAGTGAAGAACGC" , is 0.978

PBM binding z-score recorded for this sequence, "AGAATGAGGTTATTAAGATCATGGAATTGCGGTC" , is 0.459

PBM binding z-score recorded for this sequence, "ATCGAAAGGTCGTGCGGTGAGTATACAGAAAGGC" , is 3.06

PBM binding z-score recorded for this sequence, "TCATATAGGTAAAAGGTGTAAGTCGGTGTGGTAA" , is 1.04

PBM binding z-score recorded for this sequence, "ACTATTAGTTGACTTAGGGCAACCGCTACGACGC" , is 0.236
